- Test system: Quackgrass
- assay: Pre-emergent herbicidal activity (Table A)
- Format: in vivo
- condition-parameters: pre-emergence, Rhqg, 11.2 kg/ha, 10-14 days, read-out: herbicidal rating (% inhibition)
inhibition at 11200 g/ha listing for selected compounds.

| compound | experimental-result |
| --- | --- |
| COC(=O)c1c(OC)nc(C(F)(F)F)c(CO)c1CC(C)C | 75 to 100% |
| COC(=O)c1c(C(F)(F)F)nc(OC)c(C(=O)n2ccnc2)c1CC(C)C | 0 to 24% |
| CCOc1nc(C(F)(F)F)c(C(=O)SC)c(CC(C)C)c1C(=O)OC | 75 to 100% |
| CNC(=O)c1c(C(F)(F)F)nc(OC)c(C(=O)OC)c1CC(C)C | 0 to 24% |
| COC(=O)c1c(OC)nc(C(F)(F)F)c(C(=O)OC)c1CSC | 25 to 49% |

Exam item: Which inhibition at 11200 g/ha value belongs to "CCOc1nc(C(F)(F)F)c(C(=O)SC)c(CC(C)C)c1C(=O)SC" ?
Marked response: 75 to 100%
